src = patent US20250171463A1

# Tested On: EBP (Homo sapiens)
# Construct: HEK293T cells were utilized as the source of EBP enzyme; endogenous in cells
# Sequence (Q15125 whole entry): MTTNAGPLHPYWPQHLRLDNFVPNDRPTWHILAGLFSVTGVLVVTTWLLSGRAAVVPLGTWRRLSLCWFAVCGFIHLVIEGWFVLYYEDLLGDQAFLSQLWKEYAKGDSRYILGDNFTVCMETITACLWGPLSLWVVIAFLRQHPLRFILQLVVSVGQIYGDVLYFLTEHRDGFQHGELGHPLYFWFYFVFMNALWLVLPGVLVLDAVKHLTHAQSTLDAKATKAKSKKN
# Experiment Description: EBP Functional Assay (EBP immunoaffinity LC-MS assay)
# Experimental Context: EBP enzyme from HEK293T cells; 30 min with inhibitor, then zymosterol-d5, 37° C., 4 h; percent conversion to dehydrolathosterol-d5 by LC-APCI MRM MS
Endpoint: IC50

Solved entries (count: 3):
## Task Look up IC50: Cn1nc(C(F)(F)F)cc1S(=O)(=O)N1CC2(CN(C3CCOCC3)C2)C1
## Result 0.1 to 0.25 µM

## Task IC50 lookup needed for O=S(=O)(c1ccc(OC(F)(F)F)cc1F)N1CC2(CN(CC3CCOCC3)C2)C1 , thanks.
## Result 0.25 to 4 µM

## Task Name the reported IC50 value associated with the compound Cn1nc2c(c1S(=O)(=O)N1CC3(CN(C4CCOCC4)C3)C1)CCC2
## Result 0.25 to 4 µM

More entries:
## Task Return reported IC50; argument: Cc1nc(C(F)(F)F)ccc1S(=O)(=O)N1CC2(CN(C[C@@H]3CC[C@H]4C[C@H]3CO4)C2)C1 (racemic)
## Result < 0.1 µM

## Task Query: IC50; subject: O=S(=O)(c1cc(C(F)(F)F)nn1CC1CC1)N1CC2(CN(CC3CCOCC3)C2)C1
## Result 0.25 to 4 µM

## Task Query (compound): Cc1ccc(S(=O)(=O)N2CC3(CN(CC4CCOCC4)C3)C2)c(C(F)(F)F)n1 ; field requested: IC50
## Result 0.1 to 0.25 µM

## Task Find the recorded IC50 belonging to O=S(=O)(c1ccc(C(F)(F)F)nc1C1CC1)N1CC2(CN(CC3CCOCC3)C2)C1 and report it.
## Result < 0.1 µM

## Task Given CC1(CN2CCC3(CC2)CN(S(=O)(=O)c2cc(F)cc(F)c2)CCO3)COC1 , state its recorded IC50.
## Result 0.1 to 0.25 µM
